Target: human FXIa protein (hFXIa) (Homo sapiens (Human))
Sequence (P03951 388-625): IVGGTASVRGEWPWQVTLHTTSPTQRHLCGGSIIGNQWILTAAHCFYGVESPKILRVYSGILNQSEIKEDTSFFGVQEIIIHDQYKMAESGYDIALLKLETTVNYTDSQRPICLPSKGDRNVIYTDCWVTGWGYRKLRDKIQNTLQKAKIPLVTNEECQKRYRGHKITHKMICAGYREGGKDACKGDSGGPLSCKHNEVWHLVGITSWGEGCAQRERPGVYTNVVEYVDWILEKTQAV
Sequence (P03951 19-387 partner): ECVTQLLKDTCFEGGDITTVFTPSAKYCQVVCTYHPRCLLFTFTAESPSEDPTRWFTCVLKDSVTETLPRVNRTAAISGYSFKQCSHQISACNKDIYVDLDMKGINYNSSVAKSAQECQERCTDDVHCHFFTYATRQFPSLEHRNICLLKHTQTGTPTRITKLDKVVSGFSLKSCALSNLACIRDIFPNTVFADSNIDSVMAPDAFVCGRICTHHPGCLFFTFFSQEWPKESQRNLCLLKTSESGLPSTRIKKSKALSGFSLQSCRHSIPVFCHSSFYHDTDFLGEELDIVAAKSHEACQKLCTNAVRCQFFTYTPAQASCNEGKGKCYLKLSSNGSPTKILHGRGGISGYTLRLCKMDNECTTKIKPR
pIC50: −log10 of the molar value.
TEST READOUT: pIC50

{"MOLECULE": "CS(=O)(=O)NC(=O)[C@@H]1[C@@H](Cc2ccnc(N)c2)C(=O)N1C(=O)N1CCC[C@H](c2ccccc2)C1", "ASSAY RESULT": 8.49}
{"MOLECULE": "NC(=O)[C@@H]1[C@@H](Cc2ccnc(N)c2)C(=O)N1C(=O)N1CCCC(c2ccc3c(c2)OC(F)(F)O3)C1 (stereo partly shown)", "ASSAY RESULT": 8.39}
{"MOLECULE": "CNC(=O)[C@@H]1[C@@H](Cc2ccnc(N)c2)C(=O)N1C(=O)N1CCC[C@@H](c2ccccc2)C1", "ASSAY RESULT": 8.39}
{"MOLECULE": "CS(=O)(=O)NC(=O)[C@@H]1[C@@H](Cc2ccnc(N)c2)C(=O)N1C(=O)N1CCCCC1c1ccccc1 (stereo partly shown)", "ASSAY RESULT": 7.97}
{"MOLECULE": "COC(=O)Nc1cccc(C2CCCN(C(=O)N3C(=O)[C@H](Cc4ccnc(N)c4)[C@H]3C(=O)O)C2)c1 (stereo partly shown)", "ASSAY RESULT": 8.04}
{"MOLECULE": "CN(C)C(=O)[C@@H]1[C@@H](Cc2ccnc(N)c2)C(=O)N1C(=O)N1CCCCC1c1ccccc1 (stereo partly shown)", "ASSAY RESULT": 7.97}
{"MOLECULE": "CNC(=O)[C@@H]1[C@@H](Cc2ccnc(N)c2)C(=O)N1C(=O)N1CCC[C@H](c2ccccc2)C1", "ASSAY RESULT": 8.82}
